Each recorded value in this set is attributed to ChEMBL document CHEMBL6153104.

biological target: von Hippel-Lindau disease tumor suppressor/Inactive tyrosine-protein kinase transmembrane receptor ROR1 (Homo sapiens, UniProt P40337+Q01973); test: PROTAC activity at VHL/ROR1 in human NCI-H23 cells assessed as induction of ROR1 degradation at 0.1 uM incubated for 24 hrs by Western blot analysis relative to control; type: cell-based
Sequence (P40337 whole entry): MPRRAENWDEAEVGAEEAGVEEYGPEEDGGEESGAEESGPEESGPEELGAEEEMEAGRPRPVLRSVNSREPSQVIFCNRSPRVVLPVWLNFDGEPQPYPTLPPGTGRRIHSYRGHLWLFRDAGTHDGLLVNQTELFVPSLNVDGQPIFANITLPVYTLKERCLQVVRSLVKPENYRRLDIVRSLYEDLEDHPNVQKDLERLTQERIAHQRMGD
Sequence (Q01973 30-937 partner limits assumed): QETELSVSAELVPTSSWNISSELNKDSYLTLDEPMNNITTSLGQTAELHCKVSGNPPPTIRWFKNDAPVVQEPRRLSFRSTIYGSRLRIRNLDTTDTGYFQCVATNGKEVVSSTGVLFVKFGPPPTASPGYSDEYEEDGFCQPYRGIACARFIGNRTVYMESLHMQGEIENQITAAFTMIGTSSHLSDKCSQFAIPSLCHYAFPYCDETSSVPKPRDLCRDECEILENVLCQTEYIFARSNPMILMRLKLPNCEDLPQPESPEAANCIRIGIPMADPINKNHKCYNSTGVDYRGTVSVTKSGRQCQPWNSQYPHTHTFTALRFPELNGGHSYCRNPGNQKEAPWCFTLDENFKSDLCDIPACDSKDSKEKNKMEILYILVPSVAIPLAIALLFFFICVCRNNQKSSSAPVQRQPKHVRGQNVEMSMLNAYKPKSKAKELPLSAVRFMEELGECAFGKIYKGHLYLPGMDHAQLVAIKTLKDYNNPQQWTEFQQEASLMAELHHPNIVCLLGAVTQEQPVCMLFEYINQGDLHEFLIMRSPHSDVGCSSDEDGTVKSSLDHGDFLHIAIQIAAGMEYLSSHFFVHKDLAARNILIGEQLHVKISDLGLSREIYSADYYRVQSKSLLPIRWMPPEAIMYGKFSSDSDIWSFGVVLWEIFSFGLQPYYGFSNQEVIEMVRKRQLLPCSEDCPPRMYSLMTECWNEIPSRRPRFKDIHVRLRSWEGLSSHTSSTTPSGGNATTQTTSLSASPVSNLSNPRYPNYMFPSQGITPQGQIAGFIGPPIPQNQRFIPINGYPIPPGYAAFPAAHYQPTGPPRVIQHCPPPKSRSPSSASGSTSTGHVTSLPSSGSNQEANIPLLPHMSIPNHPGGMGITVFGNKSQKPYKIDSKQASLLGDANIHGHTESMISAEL
Activity: recorded values
Report only the number, with the unit % understood.

These solved cases illustrate the format of a correct answer.
>  <compoundStructure>
CCN1CCC(Nc2c(Br)cnc3[nH]c(-c4ccc(N5CCN(C(=O)CCC(=O)N[C@H](C(=O)N6C[C@H](O)C[C@H]6C(=O)NCc6ccc(-c7scnc7C)cc6)C(C)(C)C)CC5)cc4)nc23)CC1

>  <unitAbbrev>
%

>  <Activity>
32.5

$$$$
>  <compoundStructure>
CCN1CCC(Nc2c(Br)cnc3[nH]c(-c4ccc(N5CCN(CCCCCCCCCC(=O)N[C@H](C(=O)N6C[C@H](O)C[C@H]6C(=O)NCc6ccc(-c7scnc7C)cc6)C(C)(C)C)CC5)cc4)nc23)CC1

>  <unitAbbrev>
%

>  <Activity>
28.1

$$$$
>  <compoundStructure>
CCN1CCC(Nc2c(Br)cnc3[nH]c(-c4ccc(N5CCN(C(=O)CCCCCCC(=O)N[C@H](C(=O)N6C[C@H](O)C[C@H]6C(=O)NCc6ccc(-c7scnc7C)cc6)C(C)(C)C)CC5)cc4)nc23)CC1

>  <unitAbbrev>
%

>  <Activity>
36.5

$$$$
>  <compoundStructure>
CCN1CCC(Nc2c(Br)cnc3[nH]c(-c4ccc(N5CCN(C(=O)CCCCCCCCCCC(=O)N[C@H](C(=O)N6C[C@H](O)C[C@H]6C(=O)NCc6ccc(-c7scnc7C)cc6)C(C)(C)C)CC5)cc4)nc23)CC1

>  <unitAbbrev>
%

>  <Activity>
85.1

$$$$
>  <compoundStructure>
CCN1CCC(Nc2c(Br)cnc3[nH]c(-c4ccc(N5CCN(CCCCCCCC(=O)N[C@H](C(=O)N6C[C@H](O)C[C@H]6C(=O)NCc6ccc(-c7scnc7C)cc6)C(C)(C)C)CC5)cc4)nc23)CC1

>  <unitAbbrev>
%

>  <Activity>
52.5

$$$$
>  <compoundStructure>
CCN1CCC(Nc2c(Br)cnc3[nH]c(-c4ccc(N5CCN(CC(=O)N[C@H](C(=O)N6C[C@H](O)C[C@H]6C(=O)NCc6ccc(-c7scnc7C)cc6)C(C)(C)C)CC5)cc4)nc23)CC1

>  <unitAbbrev>
%

>  <Activity>
10.2

$$$$
>  <compoundStructure>
CCN1CCC(Nc2c(Br)cnc3[nH]c(-c4ccc(N5CCN(CCCCCC(=O)N[C@H](C(=O)N6C[C@H](O)C[C@H]6C(=O)NCc6ccc(-c7scnc7C)cc6)C(C)(C)C)CC5)cc4)nc23)CC1

>  <unitAbbrev>
%

>  <Activity>
29.3

$$$$
>  <compoundStructure>
CCN1CCC(Nc2c(Br)cnc3[nH]c(-c4ccc(N5CCN(CCCC(=O)N[C@H](C(=O)N6C[C@H](O)C[C@H]6C(=O)NCc6ccc(-c7scnc7C)cc6)C(C)(C)C)CC5)cc4)nc23)CC1

>  <unitAbbrev>
%

>  <Activity>
22.6

$$$$

Please list Activity recorded for the compound CCN1CCC(Nc2c(Br)cnc3[nH]c(-c4ccc(N5CCN(C(=O)CCCCCCCCC(=O)N[C@H](C(=O)N6C[C@H](O)C[C@H]6C(=O)NCc6ccc(-c7scnc7C)cc6)C(C)(C)C)CC5)cc4)nc23)CC1
93

Please look at this compound and report its Activity: CCN1CCC(Nc2c(Br)cnc3[nH]c(-c4ccc(N5CCN(C(=O)CCCCC(=O)N[C@H](C(=O)N6C[C@H](O)C[C@H]6C(=O)NCc6ccc(-c7scnc7C)cc6)C(C)(C)C)CC5)cc4)nc23)CC1
12.9
